Provenance of the data: patent US20240132489A1

molecular target: CDK7/cyclin H/MAT1 complex (Homo sapiens (Human)); test: In vitro enzymatic inhibitory activity test, CDK7; details: Caliper mobility shift, 180 min at 27° C.
pIC50: −log10 of the molar value.
Measured Attribute: pIC50

1. FC(F)(F)c1cnc(N[C@H]2CCCNC2)nc1-c1c[nH]c2nc(N3CC4COCC4C3)ccc12 (stereo partly shown)	7.92
2. C[C@H]1COCCN1c1nc2[nH]cc(-c3nc(N[C@H]4CCCNC4)ncc3C(F)(F)F)c2cc1F	8.07

A. CC1(C)CC[C@H](Nc2ncc(C(F)(F)F)c(-c3c[nH]c4nc(N5CCOCC5)ccc34)n2)CN1
B. C[C@H]1COCCN1c1ccc2c(-c3nc(N[C@H]4CCC5(CC5)NC4)ncc3C(F)(F)F)c[nH]c2n1
Hi, I'm comparing two records. Which one has the lower pIC50, A or B ? Your answer should be the label attached to the chosen record.
B

====

molecular target: CDK7/cyclin H/MAT1 complex (Homo sapiens (Human), UniProt P50613); assay: In vitro enzymatic inhibitory activity test, CDK7; type: biochemical; conditions: Caliper mobility shift, 180 min at 27° C.
Sequence (P50613 whole entry, species assumed): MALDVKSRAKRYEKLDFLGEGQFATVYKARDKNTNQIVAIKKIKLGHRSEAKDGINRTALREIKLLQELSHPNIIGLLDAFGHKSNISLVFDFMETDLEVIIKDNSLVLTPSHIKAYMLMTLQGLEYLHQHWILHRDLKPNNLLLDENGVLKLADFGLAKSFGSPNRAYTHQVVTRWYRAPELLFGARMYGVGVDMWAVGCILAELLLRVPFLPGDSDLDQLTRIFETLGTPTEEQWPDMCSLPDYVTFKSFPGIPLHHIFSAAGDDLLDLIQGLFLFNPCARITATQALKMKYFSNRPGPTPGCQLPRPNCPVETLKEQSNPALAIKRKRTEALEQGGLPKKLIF
Sequence (P51946 whole entry partner, species assumed): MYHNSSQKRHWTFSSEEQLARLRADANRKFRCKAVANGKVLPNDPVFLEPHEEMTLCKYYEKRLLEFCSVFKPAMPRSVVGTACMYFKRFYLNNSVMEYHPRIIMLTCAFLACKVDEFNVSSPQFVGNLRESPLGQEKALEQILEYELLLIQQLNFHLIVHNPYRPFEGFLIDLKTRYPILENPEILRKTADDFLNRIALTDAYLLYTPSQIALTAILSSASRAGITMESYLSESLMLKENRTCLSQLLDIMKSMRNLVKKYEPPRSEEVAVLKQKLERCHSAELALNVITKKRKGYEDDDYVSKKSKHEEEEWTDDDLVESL
Sequence (P51948 whole entry partner, species assumed): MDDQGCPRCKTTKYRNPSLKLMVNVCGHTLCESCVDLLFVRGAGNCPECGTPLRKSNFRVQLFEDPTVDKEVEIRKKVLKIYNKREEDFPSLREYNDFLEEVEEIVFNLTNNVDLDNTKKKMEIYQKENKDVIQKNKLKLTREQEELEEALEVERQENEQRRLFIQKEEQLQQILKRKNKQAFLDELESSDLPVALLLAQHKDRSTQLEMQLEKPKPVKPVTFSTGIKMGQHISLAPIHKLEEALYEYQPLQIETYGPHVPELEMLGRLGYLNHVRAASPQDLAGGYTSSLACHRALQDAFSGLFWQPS
pIC50: −log10 of the molar value.
Measured Attribute: pIC50

Record excerpt, results attached:
1. FC(F)(F)c1cnc(N[C@H]2CCCNC2)nc1-c1c[nH]c2nc(N3CC4CC(C3)O4)ccc12	7.40
2. OC1CCN(c2ccc3c(-c4nc(N[C@H]5CCCNC5)ncc4C(F)(F)F)c[nH]c3n2)CC1	7.76
3. FC(F)(F)c1cnc(N[C@@H]2[C@@H]3CC[C@H]2NC3)nc1-c1c[nH]c2nc(N3CCOCC3)ccc12	7.08

a. FC(F)(F)c1cnc(N[C@H]2CCCNC2)nc1-c1c[nH]c2nc(C3=CCOCC3)ccc12
b. FC(F)(F)c1cnc(N[C@@H]2CCCNC2)nc1-c1c[nH]c2nc(C3CCCCO3)ccc12 (stereo partly drawn)
c. C[C@H]1COCCN1c1ccc2c(-c3nc(N[C@@H]4CNCC(F)(F)C4)ncc3C(F)(F)F)c[nH]c2n1
List the 3 entries from lowest pIC50 to highest pIC50 value. Sort and list the labels as requested.
c, b, a

====

target: CDK2/cyclin E1 complex (Homo sapiens (Human), UniProt P24941); experiment: In vitro enzymatic inhibitory activity test, CDK2; details: Caliper mobility shift, 180 min at 27° C.
Structures can show the parent of a compound that is named as a salt.
Measured Attribute: IC50 (µM)

Example results:
1) C[C@@H]1OCC2(CCN(c3ccc4c(-c5nc(N[C@H]6CCCNC6)ncc5C(F)(F)F)c[nH]c4n3)CC2)[C@@H]1N	3.79
2) CC1(O)CCN(c2ccc3c(-c4nc(N[C@H]5CCCNC5)ncc4C(F)(F)F)c[nH]c3n2)CC1	4.31
3) FC(F)(F)c1cnc(N[C@H]2CCCNC2)nc1-c1c[nH]c2nc(C3CCOCC3)ccc12 [Compound 28, formate]	3.47
4) FC(F)(F)c1cnc(N[C@H]2CCCNC2)nc1-c1c[nH]c2nc(N3C[C@H]4C[C@@H]3CO4)ccc12	4.38

A. FC(F)(F)c1cnc(N[C@H]2CCCNC2)nc1-c1c[nH]c2nc(N3CCOCC3)ccc12
B. FC(F)(F)c1cnc(N[C@H]2CCCNC2)nc1-c1c[nH]c2nc(N3CCC4(COC4)C3)ccc12
Among A and B , which shows a numerically higher IC50 result? Answer by stating the label of the chosen item.
B
(B: 17.5 µM, A: 3.02 µM)
